# Test system: OVCAR-4 ovarian
# measurement_description: NCI tumour cell line growth inhibition, 48 h; in the data active = GI50 below about 0.43 µM; inactive = the rest
Permitted responses: active, inactive

Consider the worked cases shown below.
- COc1cc(CNc2nc3cc(N)cc(N)c3nc2-c2ccccc2)cc(OC)c1: active
- COc1ccc(C(=O)c2cc(OC)c(OC)c(OC)c2OC)cc1O: inactive

Which outcome did this test record for the molecule `c1ccc(-c2c(-c3ccccc3)[n+](Cc3ccc4ccccc4c3)c(-c3ccc(-c4nc5ccccc5s4)cc3)n2Cc2ccc3ccccc3c2)cc1` ?
active

What do you get for `CN[C@@H](C)C(=O)N[C@H]1CN(S(=O)(=O)c2cccc(S(=O)(=O)N3CC[C@H]4CC[C@@H](C(=O)NC(c5ccccc5)c5ccccc5)N4C(=O)[C@@H](NC(=O)[C@H](C)NC)C3)c2)CC[C@H]2CC[C@@H](C(=O)NC(c3ccccc3)c3ccccc3)N2C1=O` ?
active

Again, but for `COc1cc2c(N3CCN(C(=O)Nc4ccc(OC(C)C)cc4)CC3)ncnc2cc1OCCCN1CCCCC1`
inactive

Okay, and `COc1ccc(OC)c(NCC(=O)n2nc(/C=C\c3ccc(O)c(OC)c3)cc2/C=C\c2ccc(O)c(OC)c2)c1` ?
inactive

Next molecule up: `FC(F)(F)Oc1cccc(-c2cc(NCCCCCCNc3cc(-c4cccc(OC(F)(F)F)c4)nc4ccc(N5CCCC5)cc34)c3cc(N4CCCC4)ccc3n2)c1`
inactive

###

# Tested on: ACHN renal
# measurement_description: NCI tumour cell line growth inhibition, 48 h
Below: a set of entries, each annotated with reported TGI.
Lab book: enter the figure in µM, no units written.

// fetch ACHN renal TGI for `CNC(=O)c1ncccc1Nc1nc(Nc2cc3c(cc2OC)CCCN3C(=O)CN(C)C)nc2[nH]ccc12`
6.72

Next compound: `COc1ccc2c(c1)c(-c1nc(-c3c[nH]c4ncccc34)cs1)cn2CCCN1CCOCC1`
8.22

Same read-out for `O=C(/C=C/c1ccc(O)c(O)c1)OCCc1ccc2ccccc2c1` ?
15.1

###

// reported GI50 per item
# Tested on: HT29 colon
# measurement_description: NCI tumour cell line growth inhibition, 48 h

Guide cases for GI50, answers given:
• O=C1NC(=N[C@@H](CO)c2ccccc2)S/C1=C\c1ccc2ncccc2c1 = 6.63 µM
• N#CC(C(=O)C(=O)Nc1c(Cl)cccc1Cl)c1ccccc1 (stereo unspecified) = > 100 µM
• CCCCCOc1ccc(/C=N/Nc2cc(C)nc3ccc(Cl)cc23)cc1 = 1.44 µM
• N#CC1c2ccccc2C=CN1C(=O)CCCl (stereo unspecified) = 11.1 µM
• C[C@]12CC[C@H]3[C@@H](CCC4=CC(=O)CC[C@@]43C)[C@@H]1CC[C@@H]2c1csc(N)n1 = 4.41 µM

// switching to the query molecule
GI50 of `N#CC1(c2ccc(NC(=O)c3cccnc3NCc3ccncc3)cc2)CCCC1` on HT29 colon?
9.96 µM

###

# Tested on: HL-60(TB) leukemia
# measurement_description: NCI tumour cell line growth inhibition, 48 h; in the data active = GI50 below about 0.43 µM; inactive = the rest
Field 'call' accepts active, inactive

- OC1(c2ccc(Cl)c(C(F)(F)F)c2)CCN(CCCC(c2ccc(F)cc2)c2ccc(F)cc2)CC1: inactive
- CCN(CC)Cc1cc(Nc2nc(NC3CCC(N(C)C)CC3)c3ccccc3n2)ccc1OC (stereo unspecified): inactive

Could you please tell me the result logged for `COc1ccc(C(=O)c2cc(OC)c(OC)c(OC)c2OC)cc1O` in this assay?
inactive

###

# Tested on: KM12 colon
# measurement_description: NCI tumour cell line growth inhibition, 48 h
Kindly return fulfilled if reported TGI is no lower than 10 µM; return not fulfilled if it is lower.

- CN(C)CCNC(=O)c1cccc2c1Nc1ccccc1S2: fulfilled
- Nc1ncnc2c1N=C(c1ccc3c(c1)OCO3)CC(c1ccc(Cl)cc1)N2 (stereo unspecified): fulfilled
- O=[N+]([O-])c1ccc(C[P+]2(c3ccccc3)CCCCC2)cc1: fulfilled
- O=C1CC(c2ccccc2)Oc2ccccc21 (stereo unspecified): fulfilled
- N#CC1c2ccccc2C=CN1C(=O)CCCl (stereo unspecified): fulfilled

Is reported TGI greater than or equal to 10 µM here: `CN(C)CCn1c(=O)c2ccc(NCCCN(C)CCCNc3ccc4c(=O)n(CCN(C)C)c(=O)n5c6ccc(O)cc6c(=O)c3c45)c3c(=O)c4cc(O)ccc4n(c1=O)c23`
not fulfilled

And for `N#CNC(N)=NCc1ccccc1` ?
fulfilled

Please do the same for `O=c1cc(O)cc2n1CCC2` as well.
fulfilled

###

# Test system: IGROV1 ovarian
# measurement_description: NCI tumour cell line growth inhibition, 48 h; in the data active = GI50 below about 0.43 µM; inactive = the rest
Hi! Could you answer with just one of these? 1 = active, 0 = inactive

Give the logged outcome of this assay for the following compound: `O=C(OCc1ccc2c(Br)cc(Br)c(O)c2n1)c1cc2ccccc2[nH]1`
0

###

Reported TGI is given for each of the following compounds.
# System: MDA-MB-231 breast
# measurement_description: NCI tumour cell line growth inhibition, 48 h
Return type: number; implicit unit µM.

Any idea what TGI was measured for `CN(C)CCn1c(=O)c2ccc(NCCCN(C)CCCNc3ccc4c(=O)n(CCN(C)C)c(=O)n5c6ccc(O)cc6c(=O)c3c45)c3c(=O)c4cc(O)ccc4n(c1=O)c23` ?
0.177

###

# Test system: PC-3 prostate
# measurement_description: NCI tumour cell line growth inhibition, 48 h
result_type: TGI

* O=C(NCc1ccccc1)c1cc2ccccc2oc1=Nc1cccc(C(F)(F)F)c1 | > 100 µM

Given the entry `c1c[nH]c(-c2cccc3nsnc23)c1` , report its measured TGI.
> 100 µM

Here is the next compound: `NCCN1CCCCCc2ccccc21`
> 10 µM

Now give it for `Clc1cccc(-c2sc(-c3cccs3)cc2Cc2cccs2)c1` too.
> 10 µM

Now the same for `CCCCCCN(CCCCCC)C(=S)N/N=C(\C)c1ccccn1`
1.88 µM

Let us now turn to `Cn1nc(-c2ccc(S(=O)(=O)/N=C(\NN)Nc3ccc(Cl)cc3)s2)cc1C(F)(F)F`
31.2 µM

Can you handle `NS(=O)(=O)c1nnc(NC(=O)N(c2ccccc2)c2ccccc2)s1` next?
> 100 µM

Try `COc1ccc2nc(NC(=O)/C(C#N)=C/c3ccccc3)sc2c1` next.
> 100 µM

Moving on to `O=C(COc1ccc(OCC(=O)N/N=C/c2ccc(-c3ccc(Cl)cc3Cl)o2)c(Cl)c1)N/N=C/c1ccc(-c2ccc(Cl)cc2Cl)o1`
> 100 µM

Repeat for the following compound: `Cc1ccc2c(-c3ccnc(Nc4ccc5c(c4)OCCO5)n3)c(-c3ccc(C(F)(F)F)cc3)nn2n1`
> 25 µM

Record: `COc1cc2nc(-c3ccc(Cl)cc3)cc(OCCCN3CCOCC3)c2cc1OC`
> 100 µM

###

# System: U251 CNS
Give one outcome, nothing more. List: active, inactive

// known answers, use as guide
- CCN(CC)CCCNc1ccc(C)c2sc3ccccc3c(=O)c12: inactive
- COc1cc2c(cc1Nc1nc(N3CCc4ccccc43)c3cc[nH]c3n1)N(C(=O)CN(C)C)CC2: inactive
- CCN1C(=S)N(CC)C2C1NC(=S)N2/N=C/C=C/c1ccccc1OC (stereo unspecified): active

Could you check what this test reported for `CCNc1nc(O)c(/C=C2\C=Nc3ncccc32)s1` ?
inactive

Thanks! And `COc1ccc(C(=O)c2cc(OC)c(OC)c(OC)c2OC)cc1O` ?
inactive

Could you do the same for `Cc1cccc(NC(=O)c2sc3nc4c(cc3c2N)C(=O)CCC4)c1` , please?
active

Entry to check: `O=C1C=C[C@H](O)[C@@]2(CO)O[C@@H]12`
inactive

CN(C)CCCC1(c2ccc(F)cc2)OCc2cc(-c3cccc4[nH]ccc34)ccc21 (stereo unspecified) ?
inactive

Repeat with CC(=O)O[C@H]1C(=O)[C@@]2(C)C([C@H](OC(=O)c3ccccc3)[C@]3(O)C[C@H](OC(=O)[C@H](O)[C@@H](NC(=O)c4ccccc4)c4ccccc4)C(C)=C1C3(C)C)[C@]1(OC(C)=O)CO[C@@H]1C[C@@H]2O (stereo partly specified)
active

Now the compound `N#Cc1nc2c(S(=O)(=O)c3ccc(Cl)cc3)c(N)n(Nc3cccc(Cl)c3)c2nc1C#N`
active

Same question for `CCN=c1sc2c(n1NC(=O)c1cc3ccc1CCc1ccc(cc1)CC3)C(=O)c1ccccc1C2=O` please.
inactive

###

# Test system: UO-31 renal
# measurement_description: NCI tumour cell line growth inhibition, 48 h
Quick reference: TGI of the listed items.
I only need the number, in µM, no unit after it.

- COc1cc([C@@H]2c3cc4c(cc3[C@@H](NC(=O)c3ccc(C#N)cc3)C3COC(=O)[C@@H]32)OCO4)cc(OC)c1O (some centres not stated): 15.3

# query: TGI of entry CC1=CC2C3(C)C(C)(C(C)=CP3(=O)c3c(C(C)C)cc(C(C)C)cc3C(C)C)C1P2(=O)c1c(C(C)C)cc(C(C)C)cc1C(C)C (configuration not stated)
4.36

Again, but for `Cn1c2ccccc2n2c3ncccc3c(=O)c(C#N)c12`
43.1
